biological target: Muscarinic acetylcholine receptor M1 (Homo sapiens, UniProt P11229); experiment: Antagonist activity at cloned muscarinic M1 receptor expressed in CHO cells by measuring calcium mobilization
Entries and their measured log10 IC50 follow.
Short version: log10 scale, IC50, nM.

Recorded results for 5 compounds are shown here.
TEST_SMILES: CN1[C@@H]2CC[C@H]1C[C@@H](OC(=O)N(Cc1ccsc1)c1ccccc1)C2
log10 IC50: 1.87
//
TEST_SMILES: COc1ccc(CN(C(=O)O[C@H]2C[C@H]3CC[C@@H](C2)[N+]3(C)C)c2ccccc2)cc1
log10 IC50: 1.93
//
TEST_SMILES: C[N+]1(C)[C@@H]2CC[C@H]1C[C@@H](OC(=O)N(Cc1ccsc1)c1ccsc1)C2.[Br-]
log10 IC50: 0.20
//
TEST_SMILES: Cc1ccsc1CN(C(=O)O[C@H]1C[C@H]2CC[C@@H](C1)[N+]2(C)C)c1ccccc1
log10 IC50: 0.58
//
TEST_SMILES: C[N+]1(C)[C@@H]2CC[C@H]1C[C@H](OC(=O)N(CC1CCCCC1)c1ccsc1)C2
log10 IC50: 0.76

Problem: Quick one: log10 IC50 for C[N+]1(C)[C@@H]2CC[C@H]1C[C@H](OC(=O)N(Cc1ccccc1)c1ccsc1)C2.[Br-] ?
Result: 0.32

Problem: Quick one: log10 IC50 for CN1[C@@H]2CC[C@H]1C[C@H](OC(=O)N(Cc1ccsc1)c1ccsc1)C2 ?
Result: 1.14

Problem: Quick one: log10 IC50 for C[N+]1(C)[C@@H]2CC[C@H]1C[C@@H](OC(=O)N(Cc1ccc(C#N)cc1)c1ccccc1)C2 ?
Result: 2.41

Problem: Quick one: log10 IC50 for COc1ccc(CN(C(=O)O[C@H]2C[C@H]3CC[C@@H](C2)N3C)c2ccccc2)cc1 ?
Result: 2.87

Problem: Quick one: log10 IC50 for CN1[C@@H]2CC[C@H]1C[C@H](OC(=O)N(Cc1ccoc1)c1ccccc1)C2 ?
Result: 1.93

Problem: Quick one: log10 IC50 for C[N+]1(C)[C@@H]2CC[C@H]1C[C@H](OC(=O)N(Cc1ccoc1)c1ccccc1)C2 ?
Result: 1.09

Problem: Quick one: log10 IC50 for CN1[C@@H]2CC[C@H]1C[C@@H](OC(=O)N(Cc1ccc(C#N)cc1)c1ccccc1)C2 ?
Result: 2.93

Problem: Quick one: log10 IC50 for C[N+]1(C)[C@@H]2CC[C@H]1C[C@@H](OC(=O)N(Cc1ccsc1)c1ccccc1)C2.[Br-] ?
Result: 0.41

###

target: Muscarinic acetylcholine receptor M1 and M3 (Homo sapiens) (UniProt P20309+P11229); assay: Selectivity for cloned muscarinic M3 receptor over cloned muscarinic M1 receptor
Entries and their measured Ratio IC50 follow.
Answer with the value's number alone.

Recorded results for 7 compounds are shown here.
TEST_SMILES: C[N+]1(C)[C@@H]2CC[C@H]1C[C@H](OC(=O)N(Cc1ccccc1Br)c1ccccc1)C2
TEST_SYSTEM: Muscarinic acetylcholine receptor M1 and M3 (Homo sapiens) (UniProt P20309+P11229)
Ratio IC50: 1
//
TEST_SMILES: C[N+]1(C)[C@@H]2CC[C@H]1C[C@H](OC(=O)N(Cc1ccccc1)c1ccccc1)C2.[Br-]
TEST_SYSTEM: Muscarinic acetylcholine receptor M1 and M3 (Homo sapiens) (UniProt P20309+P11229)
Ratio IC50: 1
//
TEST_SMILES: Cc1ccoc1CN(C(=O)O[C@H]1C[C@H]2CC[C@@H](C1)[N+]2(C)C)c1ccccc1
TEST_SYSTEM: Muscarinic acetylcholine receptor M1 and M3 (Homo sapiens) (UniProt P20309+P11229)
Ratio IC50: 0.4
//
TEST_SMILES: C[N+]1(C)[C@@H]2CC[C@H]1C[C@H](OC(=O)N(Cc1ccoc1)c1ccccc1)C2
TEST_SYSTEM: Muscarinic acetylcholine receptor M1 and M3 (Homo sapiens) (UniProt P20309+P11229)
Ratio IC50: 0.8
//
TEST_SMILES: COc1ccc(CN(C(=O)O[C@H]2C[C@H]3CC[C@@H](C2)[N+]3(C)C)c2ccccc2)cc1
TEST_SYSTEM: Muscarinic acetylcholine receptor M1 and M3 (Homo sapiens) (UniProt P20309+P11229)
Ratio IC50: 0.6
//
TEST_SMILES: CN1[C@@H]2CC[C@H]1C[C@@H](OC(=O)N(Cc1ccsc1)c1ccccc1)C2
TEST_SYSTEM: Muscarinic acetylcholine receptor M1 and M3 (Homo sapiens) (UniProt P20309+P11229)
Ratio IC50: 2.7
//
TEST_SMILES: CN1[C@@H]2CC[C@H]1C[C@H](OC(=O)N(Cc1ccsc1)c1ccsc1)C2
TEST_SYSTEM: Muscarinic acetylcholine receptor M1 and M3 (Homo sapiens) (UniProt P20309+P11229)
Ratio IC50: 1.9

Consider the record given below.
Problem: Quick one: Ratio IC50 for C[N+]1(C)[C@@H]2CC[C@H]1C[C@@H](OC(=O)N(Cc1cccc(C#N)c1)c1ccsc1)C2 ?
Result: 0.4

###

Biological target: Muscarinic acetylcholine receptor M1 (Homo sapiens)
Sequence (P11229 whole entry): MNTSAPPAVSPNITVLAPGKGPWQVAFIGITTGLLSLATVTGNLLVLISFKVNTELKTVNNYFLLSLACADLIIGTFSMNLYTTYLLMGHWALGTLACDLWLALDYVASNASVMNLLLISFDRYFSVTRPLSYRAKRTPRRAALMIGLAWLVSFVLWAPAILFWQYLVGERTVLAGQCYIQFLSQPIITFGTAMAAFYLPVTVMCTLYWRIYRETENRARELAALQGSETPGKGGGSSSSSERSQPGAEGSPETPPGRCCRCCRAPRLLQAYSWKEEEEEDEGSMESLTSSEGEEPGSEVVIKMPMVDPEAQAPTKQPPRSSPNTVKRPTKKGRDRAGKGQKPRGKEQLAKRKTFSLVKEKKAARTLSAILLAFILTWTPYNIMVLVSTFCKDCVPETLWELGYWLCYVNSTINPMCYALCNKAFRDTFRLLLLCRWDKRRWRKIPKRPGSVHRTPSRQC
Test: Antagonist activity at cloned muscarinic M1 receptor expressed in CHO cells by measuring calcium mobilization
Entries and their measured IC50 follow.
All answers are understood in µM, so give the number only.

TEST_SMILES: C[N+]1(C)[C@@H]2CC[C@H]1C[C@H](OC(=O)N(Cc1ccccc1)c1cccs1)C2.[Br-]
TEST_SYSTEM: Muscarinic acetylcholine receptor M1 (Homo sapiens)
UNIT_TAG: µM
MEASURED_RESULT: 0.0027

TEST_SMILES: Cc1ccoc1CN(C(=O)O[C@H]1C[C@H]2CC[C@@H](C1)[N+]2(C)C)c1ccccc1
TEST_SYSTEM: Muscarinic acetylcholine receptor M1 (Homo sapiens)
UNIT_TAG: µM
MEASURED_RESULT: 0.0152

TEST_SMILES: Cc1ccc(CN(C(=O)O[C@@H]2C[C@H]3CC[C@@H](C2)N3C)c2ccccc2)s1
TEST_SYSTEM: Muscarinic acetylcholine receptor M1 (Homo sapiens)
UNIT_TAG: µM
MEASURED_RESULT: 0.518

TEST_SMILES: C[N+]1(C)[C@@H]2CC[C@H]1C[C@H](OC(=O)N(Cc1cccc(Br)c1)c1ccccc1)C2
TEST_SYSTEM: Muscarinic acetylcholine receptor M1 (Homo sapiens)
UNIT_TAG: µM
MEASURED_RESULT: 0.21

Problem: Quick one: IC50 for Cc1ccc(CN(C(=O)O[C@@H]2C[C@H]3CC[C@@H](C2)[N+]3(C)C)c2ccccc2)s1 ?
Result: 0.0158

Problem: Quick one: IC50 for CN1[C@@H]2CC[C@H]1C[C@H](OC(=O)N(Cc1cccs1)c1ccccc1)C2 ?
Result: 0.0483

Problem: Quick one: IC50 for CN1[C@@H]2CC[C@H]1C[C@@H](OC(=O)N(CC1CCCCC1)c1ccsc1)C2 ?
Result: 0.126

Problem: Quick one: IC50 for Cc1ccsc1CN(C(=O)O[C@H]1C[C@H]2CC[C@@H](C1)N2C)c1ccccc1 ?
Result: 0.117

###

Target: Muscarinic acetylcholine receptor M1 (Homo sapiens, UniProt P11229)
Sequence (P11229 whole entry): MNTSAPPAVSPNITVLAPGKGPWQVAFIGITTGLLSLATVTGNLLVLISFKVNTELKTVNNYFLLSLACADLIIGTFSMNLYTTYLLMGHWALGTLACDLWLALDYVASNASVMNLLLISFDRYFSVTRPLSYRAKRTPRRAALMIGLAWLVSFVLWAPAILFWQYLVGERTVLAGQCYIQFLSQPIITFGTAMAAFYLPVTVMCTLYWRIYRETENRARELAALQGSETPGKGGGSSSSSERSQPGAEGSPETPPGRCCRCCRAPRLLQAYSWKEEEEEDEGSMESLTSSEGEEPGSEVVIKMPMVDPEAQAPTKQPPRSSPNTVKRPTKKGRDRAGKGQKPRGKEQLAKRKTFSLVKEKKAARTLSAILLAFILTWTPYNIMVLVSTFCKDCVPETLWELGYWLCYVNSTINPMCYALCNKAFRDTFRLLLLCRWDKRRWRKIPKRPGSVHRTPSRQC
Test: Antagonist activity at cloned muscarinic M1 receptor expressed in CHO cells by measuring calcium mobilization
Entries and their measured pIC50 follow.
pIC50 is defined as minus the log10 of a concentration measured in mol/L.

TEST_SMILES: CN1[C@@H]2CC[C@H]1C[C@H](OC(=O)N(Cc1ccccc1)c1ccccc1)C2
TEST_SYSTEM: Muscarinic acetylcholine receptor M1 (Homo sapiens, UniProt P11229)
MEASURED_RESULT: 6.79
//
TEST_SMILES: COc1cccc(CN(C(=O)O[C@@H]2C[C@H]3CC[C@@H](C2)[N+]3(C)C)c2ccccc2)c1
TEST_SYSTEM: Muscarinic acetylcholine receptor M1 (Homo sapiens, UniProt P11229)
MEASURED_RESULT: 6.21

Consider the record given below.
Problem: Quick one: pIC50 for COc1cccc(CN(C(=O)O[C@@H]2C[C@H]3CC[C@@H](C2)N3C)c2ccccc2)c1 ?
Result: 5.92
